All figures here come from ChEMBL document CHEMBL1134467.

target-or-test-system: Cathepsin K (Homo sapiens) (UniProt P43235)
test-summary: Pre-steady-state kinetic parameter for inhibition of human cathepsin K
reported-metric: k on (M⁻¹ s⁻¹)

[[record]]
molecule = "N#CN1CCC(NC(=O)OCc2ccccc2)C1 (centres undefined)"
measurement = 67300

[[record]]
molecule = "N#CN1Cc2cc3ccccc3nc2C1"
measurement = 6590

[[record]]
molecule = "N#CN1CCC(NS(=O)(=O)c2ccccc2)C1 (centres undefined)"
measurement = 19900

[[record]]
molecule = "N#CN1CC(CNS(=O)(=O)c2ccccc2)C1"
measurement = 141000


---

target-or-test-system: Cathepsin K (Homo sapiens)
test-summary: Inhibitory activity tested against Human Cathepsin K using Z-Phe-Arg-pNA as substrate
pIC50: −log10 of the molar value.
Class (by pIC50) -- LOW: < 6; MID: ≥ 6 and < 7; HIGH: ≥ 7

[[record]]
molecule = "N#CN1CCCC1CNC(=O)c1ccccc1 (stereo unspecified)"
class_label = "LOW"

[[record]]
molecule = "N#CN1CC(OCc2ccccc2)C1"
class_label = "HIGH"

[[record]]
molecule = "CCN(C#N)CC"
class_label = "LOW"

[[record]]
molecule = "N#CN1CCC(NC(=O)c2ccc(-c3ccccc3)cc2)C1 (stereo unspecified)"
class_label = "MID"

[[record]]
molecule = "N#CN1CCC(CNS(=O)(=O)c2ccccc2)C1 (stereo unspecified)"
class_label = "MID"

[[record]]
molecule = "N#CN1Cc2cc3ccccc3nc2C1"
class_label = "MID"

[[record]]
molecule = "N#CN1CC(CNS(=O)(=O)c2ccccc2)C1"
class_label = "HIGH"

[[record]]
molecule = "N#CN1CCC(NC(=O)c2ccccc2)C1 (stereo unspecified)"
class_label = "MID"

[[record]]
molecule = "N#CN1CCC(NS(=O)(=O)c2ccccc2)C1 (stereo unspecified)"
class_label = "HIGH"

[[record]]
molecule = "N#CN1CCCC1CNS(=O)(=O)c1ccccc1 (stereo unspecified)"
class_label = "LOW"

[[record]]
molecule = "N#CN1CC(OCC2CCCCC2)C1"
class_label = "HIGH"

[[record]]
molecule = "N#CN1CCC(NC(=O)OCc2ccccc2)C1 (stereo unspecified)"
class_label = "HIGH"


---

# Lookup of reported IC50 keyed by entry
target-or-test-system: Cathepsin K (Homo sapiens)
test-summary: Effect of 10 mM of GSH on the inhibitory activity against Cathepsin K, at pH 7
reported-metric: IC50 (µM)

[[record]]
molecule = "N#CN1CCC(NC(=O)OCc2ccccc2)C1 (stereo not given)"
censoring_qualifier = "="
measurement = 0.15

[[record]]
molecule = "N#CN1CC(CNC(=O)C2CCCCC2)C1"
censoring_qualifier = ">"
measurement = 100

[[record]]
molecule = "N#CN1Cc2cc3ccccc3nc2C1"
censoring_qualifier = "="
measurement = 11.4

[[record]]
molecule = "N#CN1CCCC1"
censoring_qualifier = "="
measurement = 3.4

[[record]]
molecule = "N#CN1CCC1"
censoring_qualifier = ">"
measurement = 100


---

target-or-test-system: Cathepsin K (Homo sapiens, UniProt P43235)
Sequence (P43235 whole entry): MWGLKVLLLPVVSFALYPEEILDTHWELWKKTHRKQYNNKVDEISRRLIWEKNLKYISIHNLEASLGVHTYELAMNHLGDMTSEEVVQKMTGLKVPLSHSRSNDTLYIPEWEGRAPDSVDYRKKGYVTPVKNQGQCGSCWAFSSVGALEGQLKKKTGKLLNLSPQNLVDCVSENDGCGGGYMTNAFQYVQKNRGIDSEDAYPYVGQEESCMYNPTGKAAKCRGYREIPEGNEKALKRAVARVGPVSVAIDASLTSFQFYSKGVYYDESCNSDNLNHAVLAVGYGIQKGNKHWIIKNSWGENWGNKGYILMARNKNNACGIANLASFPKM
test-summary: Inhibition of Cathepsin K at pH 7
pIC50: −log10 of the molar value.
Use 7 as the dividing line for pIC50, with the line itself on the satisfied side and lower values as not satisfied.

[[record]]
compound = "N#CN1CC(CNC(=O)C2CCCCC2)C1"
target_or_test_system = "Cathepsin K (Homo sapiens, UniProt P43235)"
class_label = "satisfied"

[[record]]
compound = "N#CN1CCC(NC(=O)OCc2ccccc2)C1 (stereo not given)"
target_or_test_system = "Cathepsin K (Homo sapiens, UniProt P43235)"
class_label = "satisfied"

[[record]]
compound = "N#CN1Cc2cc3ccccc3nc2C1"
target_or_test_system = "Cathepsin K (Homo sapiens, UniProt P43235)"
class_label = "not satisfied"

[[record]]
compound = "N#CN1CCC1"
target_or_test_system = "Cathepsin K (Homo sapiens, UniProt P43235)"
class_label = "not satisfied"

[[record]]
compound = "N#CN1CCCC1"
target_or_test_system = "Cathepsin K (Homo sapiens, UniProt P43235)"
class_label = "not satisfied"


---

target-or-test-system: Cathepsin K (Homo sapiens)
test-summary: Inhibitory constant against human cathepsin K
pIC50: −log10 of the molar value.
reported-metric: pIC50

[[record]]
compound = "N#CN1CCC(NC(=O)OCc2ccccc2)C1 (centres undefined)"
target_or_test_system = "Cathepsin K (Homo sapiens)"
measurement = 7.40

[[record]]
compound = "N#CN1CCC(NS(=O)(=O)c2ccccc2)C1 (centres undefined)"
target_or_test_system = "Cathepsin K (Homo sapiens)"
measurement = 7.09

[[record]]
compound = "N#CN1Cc2cc3ccccc3nc2C1"
target_or_test_system = "Cathepsin K (Homo sapiens)"
measurement = 6.43

[[record]]
compound = "N#CN1CC(CNS(=O)(=O)c2ccccc2)C1"
target_or_test_system = "Cathepsin K (Homo sapiens)"
measurement = 7.77


---

target-or-test-system: Cathepsin K (Homo sapiens, UniProt P43235)
test-summary: Inhibitory activity tested against Human Cathepsin K […] using gelatinase assay
pIC50: −log10 of the molar value.
Here the recorded pIC50 is given for each entry.
reported-metric: pIC50

[[record]]
molecule = "N#CN1Cc2cc3ccccc3nc2C1"
target_or_test_system = "Cathepsin K (Homo sapiens, UniProt P43235)"
reported_metric = "pIC50"
measurement = 6.44

[[record]]
molecule = "N#CN1CC(CNC(=O)C2CCCCC2)C1"
target_or_test_system = "Cathepsin K (Homo sapiens, UniProt P43235)"
reported_metric = "pIC50"
measurement = 8.00

[[record]]
molecule = "N#CN1CCC(NS(=O)(=O)c2ccccc2)C1 (centres undefined)"
target_or_test_system = "Cathepsin K (Homo sapiens, UniProt P43235)"
reported_metric = "pIC50"
measurement = 7.74

[[record]]
molecule = "N#CN1CCC(NC(=O)OCc2ccccc2)C1 (centres undefined)"
target_or_test_system = "Cathepsin K (Homo sapiens, UniProt P43235)"
reported_metric = "pIC50"
measurement = 7.70


---

Documented k off across a set of molecules
target-or-test-system: Cathepsin K (Homo sapiens)
test-summary: Pre-steady-state kinetic parameter for inhibition of human cathepsin K
reported-metric: k off (s⁻¹)

[[record]]
molecule = "N#CN1CCC(NS(=O)(=O)c2ccccc2)C1 (centres undefined)"
target_or_test_system = "Cathepsin K (Homo sapiens)"
unit_annotation = "s⁻¹"
measurement = 0.0019

[[record]]
molecule = "N#CN1CC(CNS(=O)(=O)c2ccccc2)C1"
target_or_test_system = "Cathepsin K (Homo sapiens)"
unit_annotation = "s⁻¹"
measurement = 0.0028

[[record]]
molecule = "N#CN1CCC(NC(=O)OCc2ccccc2)C1 (centres undefined)"
target_or_test_system = "Cathepsin K (Homo sapiens)"
unit_annotation = "s⁻¹"
measurement = 0.0056

[[record]]
molecule = "N#CN1Cc2cc3ccccc3nc2C1"
target_or_test_system = "Cathepsin K (Homo sapiens)"
unit_annotation = "s⁻¹"
measurement = 0.0025


---

target-or-test-system: Cathepsin K (Homo sapiens, UniProt P43235)
test-summary: Effect of 10 mM of GSH on the inhibitory activity of compound against Cathepsin K, at pH 5.5
pIC50: −log10 of the molar value.
reported-metric: pIC50

[[record]]
compound = "N#CN1CCC(NC(=O)OCc2ccccc2)C1 (stereo not given)"
measurement = 7.05

[[record]]
compound = "N#CN1CCCC1 [CYANO-PYRROLIDINE]"
measurement = 5.82

[[record]]
compound = "N#CN1Cc2cc3ccccc3nc2C1"
measurement = 6.44

[[record]]
compound = "N#CN1CCC1"
measurement = 6.32

[[record]]
compound = "N#CN1CC(CNC(=O)C2CCCCC2)C1"
measurement = 7.57


---

Read-out record for Cathepsin B (Homo sapiens, UniProt P07858): pIC50
pIC50: −log10 of the molar value.
reported-metric: pIC50

[[record]]
compound = "CCN(C#N)CC"
target_or_test_system = "Cathepsin B (Homo sapiens, UniProt P07858)"
reported_metric = "pIC50"
censoring_qualifier = "<"
measurement = 4.00

[[record]]
compound = "N#CN1Cc2cc3ccccc3nc2C1"
target_or_test_system = "Cathepsin B (Homo sapiens, UniProt P07858)"
reported_metric = "pIC50"
censoring_qualifier = "="
measurement = 5.64

[[record]]
compound = "N#CN1CCC(NC(=O)OCc2ccccc2)C1 (stereo not drawn)"
target_or_test_system = "Cathepsin B (Homo sapiens, UniProt P07858)"
reported_metric = "pIC50"
censoring_qualifier = "="
measurement = 6.70

[[record]]
compound = "N#CN1CCC(NC(=O)c2ccc(-c3ccccc3)cc2)C1 (stereo not drawn)"
target_or_test_system = "Cathepsin B (Homo sapiens, UniProt P07858)"
reported_metric = "pIC50"
censoring_qualifier = "="
measurement = 6.52

[[record]]
compound = "N#CN1CCC(NC(=O)c2ccccc2)C1 (stereo not drawn)"
target_or_test_system = "Cathepsin B (Homo sapiens, UniProt P07858)"
reported_metric = "pIC50"
censoring_qualifier = "="
measurement = 5.38

[[record]]
compound = "N#CN1CCC(CNS(=O)(=O)c2ccccc2)C1 (stereo not drawn)"
target_or_test_system = "Cathepsin B (Homo sapiens, UniProt P07858)"
reported_metric = "pIC50"
censoring_qualifier = "="
measurement = 5.82

[[record]]
compound = "N#CN1CCCC1"
target_or_test_system = "Cathepsin B (Homo sapiens, UniProt P07858)"
reported_metric = "pIC50"
censoring_qualifier = "="
measurement = 4.82

[[record]]
compound = "N#CN1CC(CNS(=O)(=O)c2ccccc2)C1"
target_or_test_system = "Cathepsin B (Homo sapiens, UniProt P07858)"
reported_metric = "pIC50"
censoring_qualifier = "="
measurement = 6.52

